# Tested on: E.coli 1146
# Protocol Text: Vitek 2 drug sensitivity test; also: key: S: Drug sensitive; R: Drug resistance
# Type: cell-based, Escherichia coli
Observed Property: Sensibility

Compound	Observed Property	Result
CN(C)c1cc(NC(=O)CNC(C)(C)C)c(O)c2c1C[C@H]1C[C@H]3[C@H](N(C)C)C(O)=C(C(N)=O)C(=O)[C@@]3(O)C(O)=C1C2=O [Tigecycline, tigecycline]	Sensibility	S
C[C@H]1COc2c(N3CCN(C)CC3)c(F)cc3c(=O)c(C(=O)O)cn1c23 [Levofloxacin, levofloxacin]	Sensibility	R
C[C@@H](O)[C@H]1C(=O)N2C(C(=O)O)=C(SCCN=CN)C[C@H]12 [Imipenem, imipenem]	Sensibility	S
CO/N=C(\C(=O)N[C@@H]1C(=O)N2C(C(=O)[O-])=C(C[N+]3(C)CCCC3)CS[C@H]12)c1csc(N)n1 [Cefepime, cefepime]	Sensibility	S

---

# Tested on: E. faecium Ef26
# Protocol Text: BMD susceptibility test
# Format: cell-based, Enterococcus faecium
# Experimental Context: unit assumed

Structure Notation	Inequality Operator	BMD (MIC) / µg/mL
CC[C@H]1OC(=O)[C@H](C)[C@@H](O[C@H]2C[C@@](C)(OC)[C@@H](O)[C@H](C)O2)[C@H](C)[C@@H](O[C@@H]2O[C@H](C)C[C@H](N(C)C)[C@H]2O)[C@](C)(O)C[C@@H](C)C(=O)[C@H](C)[C@@H](O)[C@]1(C)O	≤	0.25
CC(=O)NC[C@H]1CN(c2ccc(N3CCOCC3)c(F)c2)C(=O)O1	=	2
CN[C@H](CC(C)C)C(=O)N[C@H]1C(=O)N[C@@H](CC(N)=O)C(=O)N[C@H]2C(=O)N[C@H]3C(=O)N[C@H](C(=O)N[C@H](C(=O)O)c4cc(O)cc(O)c4-c4cc3ccc4O)[C@H](O)c3ccc(c(Cl)c3)Oc3cc2cc(c3O[C@@H]2O[C@H](CO)[C@@H](O)[C@H](O)[C@H]2O[C@H]2C[C@](C)(N)[C@H](O)[C@H](C)O2)Oc2ccc(cc2Cl)[C@H]1O	=	0.5
CC1(C)S[C@@H]2[C@H](NC(=O)Cc3ccccc3)C(=O)N2[C@H]1C(=O)O	=	64

---

# Test system: alveolar lavage fluid sample 0130, A. baumannii
# Protocol Text: FaAST (FDAA) susceptibility test of patient alveolar lavage fluid
# Format: cell-based, Acinetobacter baumannii
# Experimental Context: unit assumed
# key: entry, value: FaAST (MIC)
Observed Property: FaAST (MIC) (µg/mL)

>>> print(df.to_string())
                         structure_notation  observed_property  numeric_readout
0  CC(=O)NC[C@H]1CN(c2ccc(N3CCOCC3)c(F)c2)C(=O)O1        FaAST (MIC)               64
1  CN(C)c1cc(NC(=O)CNC(C)(C)C)c(O)c2c1C[C@H]1C[C@H]3[C@H](N(C)C)C(O)=C(C(N)=O)C(=O)[C@@]3(O)C(O)=C1C2=O        FaAST (MIC)                2
2  C[C@@H](O)[C@H]1C(=O)N2C(C(=O)O)=C(S[C@@H]3CN[C@H](C(=O)N(C)C)C3)[C@H](C)[C@H]12        FaAST (MIC)               32
3  C[C@H]1COc2c(N3CCN(C)CC3)c(F)cc3c(=O)c(C(=O)O)cn1c23        FaAST (MIC)               64

---

# Tested on: E. faecalis ATCC29212
# Protocol Text: FaAST (FDAA metabolic labeling method)
# Assay type: cell-based, Enterococcus faecalis
# Experimental Context: unit assumed
Parameter FaAST (MIC): see the listing below.

Structure Notation	Unit Info	FaAST (MIC)
CC[C@H]1OC(=O)[C@H](C)[C@@H](O[C@H]2C[C@@](C)(OC)[C@@H](O)[C@H](C)O2)[C@H](C)[C@@H](O[C@@H]2O[C@H](C)C[C@H](N(C)C)[C@H]2O)[C@](C)(O)C[C@@H](C)C(=O)[C@H](C)[C@@H](O)[C@]1(C)O	µg/mL	2
CC(=O)NC[C@H]1CN(c2ccc(N3CCOCC3)c(F)c2)C(=O)O1	µg/mL	2
CC1(C)S[C@@H]2[C@H](NC(=O)Cc3ccccc3)C(=O)N2[C@H]1C(=O)O	µg/mL	4
CN[C@H](CC(C)C)C(=O)N[C@H]1C(=O)N[C@@H](CC(N)=O)C(=O)N[C@H]2C(=O)N[C@H]3C(=O)N[C@H](C(=O)N[C@H](C(=O)O)c4cc(O)cc(O)c4-c4cc3ccc4O)[C@H](O)c3ccc(c(Cl)c3)Oc3cc2cc(c3O[C@@H]2O[C@H](CO)[C@@H](O)[C@H](O)[C@H]2O[C@H]2C[C@](C)(N)[C@H](O)[C@H](C)O2)Oc2ccc(cc2Cl)[C@H]1O	µg/mL	2
C[C@H]1COc2c(N3CCN(C)CC3)c(F)cc3c(=O)c(C(=O)O)cn1c23	µg/mL	1

---

# Test system: Ec ATCC 25922
# Protocol Text: FaAST (FDAA metabolic labeling)
# Type: cell-based, Escherichia coli
# Experimental Context: unit assumed

Structure Notation	FaAST (MIC)
CN(C)c1cc(NC(=O)CNC(C)(C)C)c(O)c2c1C[C@H]1C[C@H]3[C@H](N(C)C)C(O)=C(C(N)=O)C(=O)[C@@]3(O)C(O)=C1C2=O	≤ 0.25 µg/mL
C[C@H]1COc2c(N3CCN(C)CC3)c(F)cc3c(=O)c(C(=O)O)cn1c23	≤ 0.25 µg/mL
NCC[C@H](O)C(=O)N[C@@H]1C[C@H](N)[C@@H](O[C@H]2O[C@H](CN)[C@@H](O)[C@H](O)[C@H]2O)[C@H](O)[C@H]1O[C@H]1O[C@H](CO)[C@@H](O)[C@H](N)[C@H]1O	2 µg/mL

---

# Test system: alveolar lavage fluid sample 0226, K. pneumoniae
# Protocol Text: FaAST (FDAA) susceptibility test of patient alveolar lavage fluid
# Format: cell-based, Klebsiella pneumoniae
# Experimental Context: unit assumed
Observed Property: FaAST (MIC)

                         structure_notation  observed_property      result
0  CC(=O)NC[C@H]1CN(c2ccc(N3CCOCC3)c(F)c2)C(=O)O1        FaAST (MIC)    16 µg/mL
1  C[C@H]1COc2c(N3CCN(C)CC3)c(F)cc3c(=O)c(C(=O)O)cn1c23        FaAST (MIC)  0.25 µg/mL
2  CN(C)c1cc(NC(=O)CNC(C)(C)C)c(O)c2c1C[C@H]1C[C@H]3[C@H](N(C)C)C(O)=C(C(N)=O)C(=O)[C@@]3(O)C(O)=C1C2=O        FaAST (MIC)   0.5 µg/mL
3  C[C@@H](O)[C@H]1C(=O)N2C(C(=O)O)=C(S[C@@H]3CN[C@H](C(=O)N(C)C)C3)[C@H](C)[C@H]12        FaAST (MIC)  0.25 µg/mL

---

# System: A. baumannii Ab19
# Protocol Text: FaAST (FDAA metabolic labeling)
# Format: cell-based, Acinetobacter baumannii
# Experimental Context: unit assumed
Listed below: FaAST (MIC) values for each entry.

Compound	FaAST (MIC) / µg/mL
CN(C)c1cc(NC(=O)CNC(C)(C)C)c(O)c2c1C[C@H]1C[C@H]3[C@H](N(C)C)C(O)=C(C(N)=O)C(=O)[C@@]3(O)C(O)=C1C2=O [Tigecycline, tigecycline]	0.5
C[C@@H](O)[C@H]1C(=O)N2C(C(=O)O)=C(SCCN=CN)C[C@H]12 [Imipenem, imipenem]	1
NCC[C@H](O)C(=O)N[C@@H]1C[C@H](N)[C@@H](O[C@H]2O[C@H](CN)[C@@H](O)[C@H](O)[C@H]2O)[C@H](O)[C@H]1O[C@H]1O[C@H](CO)[C@@H](O)[C@H](N)[C@H]1O [Amikacin]	2
C[C@H]1COc2c(N3CCN(C)CC3)c(F)cc3c(=O)c(C(=O)O)cn1c23 [Levofloxacin, levofloxacin]	0.5
CO/N=C(\C(=O)N[C@@H]1C(=O)N2C(C(=O)[O-])=C(C[N+]3(C)CCCC3)CS[C@H]12)c1csc(N)n1 [Cefepime, cefepime]	1

---

This section presents molecules with their documented FaAST (MIC) values.
# System: alveolar lavage fluid sample 0206, A. baumannii
# Protocol Text: FaAST (FDAA) susceptibility test of patient alveolar lavage fluid
# Assay type: cell-based, Acinetobacter baumannii
# Experimental Context: unit assumed
Observed Property: FaAST (MIC) (µg/mL)

>>> print(df.to_string())
                         structure_notation  observed_property  numeric_readout
0  C[C@H]1COc2c(N3CCN(C)CC3)c(F)cc3c(=O)c(C(=O)O)cn1c23        FaAST (MIC)               64
1  CC(=O)NC[C@H]1CN(c2ccc(N3CCOCC3)c(F)c2)C(=O)O1        FaAST (MIC)               64
2  CN(C)c1cc(NC(=O)CNC(C)(C)C)c(O)c2c1C[C@H]1C[C@H]3[C@H](N(C)C)C(O)=C(C(N)=O)C(=O)[C@@]3(O)C(O)=C1C2=O        FaAST (MIC)                8
3  C[C@@H](O)[C@H]1C(=O)N2C(C(=O)O)=C(S[C@@H]3CN[C@H](C(=O)N(C)C)C3)[C@H](C)[C@H]12        FaAST (MIC)               32
